measurement-target: human A2B adenosine receptor (hA2BAR) (Homo sapiens)
Sequence (P29275 whole entry): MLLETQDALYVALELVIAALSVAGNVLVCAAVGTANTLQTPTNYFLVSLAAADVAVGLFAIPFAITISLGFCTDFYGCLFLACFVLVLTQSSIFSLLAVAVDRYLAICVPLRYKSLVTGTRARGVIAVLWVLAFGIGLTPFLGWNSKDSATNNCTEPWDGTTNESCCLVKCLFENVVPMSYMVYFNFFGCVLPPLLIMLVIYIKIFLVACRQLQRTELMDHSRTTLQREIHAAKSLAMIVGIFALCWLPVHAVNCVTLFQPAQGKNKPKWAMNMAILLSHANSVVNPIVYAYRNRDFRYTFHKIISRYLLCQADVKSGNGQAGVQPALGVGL
assay-details: Activation of human A2B adenosine receptor at 10 μM
Format: cell-based
condition-description: CHO cells
property-name: % Activation (hA2BAR) at 10 μM (%)
Give just the number in %; leave the unit off.

molecule	% Activation (hA2BAR) at 10 μM [%]
CNC(=O)[C@@]12C[C@@H]1[C@H](n1cnc3c(NCc4cc(Cl)ccc4Cl)nc(Cl)nc31)[C@H](O)[C@@H]2O	32

**Query** For the molecule shown here, CNC(=O)[C@@]12C[C@@H]1[C@@H](n1cnc3c(N[C@@H]4C[C@H]4c4ccccc4)nc(Cl)nc31)[C@H](O)[C@@H]2O (relative stereo) , give the reported % Activation (hA2BAR) at 10 μM.
**Result** 48

**Query** For the molecule shown here, CNC(=O)C12CC1C(n1cnc3c(NCc4cccc(Br)c4)nc(Cl)nc31)C(O)C2O (stereo not drawn) , give the reported % Activation (hA2BAR) at 10 μM.
**Result** 38

----------
measurement-target: human A1 receptors (Homo sapiens, UniProt P30542)
Construct: expressed in transfected cells
Sequence (P30542 whole entry): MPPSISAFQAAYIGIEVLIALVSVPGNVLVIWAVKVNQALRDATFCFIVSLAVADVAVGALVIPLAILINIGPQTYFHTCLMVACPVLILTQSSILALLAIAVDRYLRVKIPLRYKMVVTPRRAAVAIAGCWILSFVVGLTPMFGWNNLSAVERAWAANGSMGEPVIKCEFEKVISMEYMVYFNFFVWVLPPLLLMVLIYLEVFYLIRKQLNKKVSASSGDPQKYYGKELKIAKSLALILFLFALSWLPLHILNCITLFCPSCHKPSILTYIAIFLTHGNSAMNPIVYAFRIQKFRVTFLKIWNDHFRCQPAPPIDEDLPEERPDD
assay-details: Binding at human A1 adenosine receptor ([3H]R-PIA, CHO cell membranes)
condition-description: mean ± s.e.m., n = 3-5, read-out: Ki(hA1AR)
property-name: pKi
pKi here is simply -log10 of the concentration when that concentration is written in mol/L.

Recorded pKi, per entry:
compound	meas-value
CNC(=O)[C@@]12C[C@@H]1[C@@H](n1cnc3c(NC)nc(Cl)nc31)[C@H](O)[C@@H]2O	5.68
OC[C@H]1O[C@@H](n2cnc3c(NCc4cccc(Cl)c4)ncnc32)[C@H](O)[C@@H]1O [Compound 8, reference compound]	7.70
CNC(=O)C12CC1C(n1cnc3c(NCc4cccc(Br)c4)nc(Cl)nc31)C(O)C2O (stereo not drawn)	6.57
CNC(=O)C12CC1C(n1cnc3c(NCc4cc(OC)ccc4OC)nc(Cl)nc31)C(O)C2O (stereo not drawn)	5.80
CNC(=O)[C@@]12C[C@@H]1[C@@H](n1cnc3c(NCC(c4ccccc4)c4ccccc4)nc(Cl)nc31)[C@H](O)[C@@H]2O	5.89

Consider the additional compound presented here.
**Query** For the compound shown here, "CNC(=O)[C@@]12C[C@@H]1[C@H](n1cnc3c(NCc4cccc(Cl)c4)nc(Cl)nc31)[C@H](O)[C@@H]2O" , give the reported pKi.
**Result** 6.59

----------
Here the recorded % Activation (hA2BAR) at 10 μM is given for each entry.
measurement-target: human A2B adenosine receptor (hA2BAR) (Homo sapiens)
assay-details: Activation of human A2B adenosine receptor at 10 μM
Type: cell-based
condition-description: CHO cells
Give just the number in %; leave the unit off.

Recorded % Activation (hA2BAR) at 10 μM, per entry:
compound	unit-spec	meas-value
CNC(=O)C12CC1C(n1cnc3c(NCc4cccc(C)c4)nc(Cl)nc31)C(O)C2O (centres unmarked) [Compound 28]	%	46
CNC(=O)C12CC1C(n1cnc3c(NCc4ccccc4C)nc(Cl)nc31)C(O)C2O (centres unmarked) [Compound 27]	%	24
CNC(=O)[C@@]12C[C@@H]1[C@@H](n1cnc3c(NCC(c4ccccc4)c4ccccc4)nc(Cl)nc31)[C@H](O)[C@@H]2O [Compound 34]	%	46
CNC(=O)C12CC1C(n1cnc3c(NCc4cccnc4)nc(Cl)nc31)C(O)C2O (centres unmarked) [Compound 32]	%	4
CNC(=O)C12CC1C(n1cnc3c(NCc4cccc(C#CCO)c4)nc(Cl)nc31)C(O)C2O (centres unmarked) [Compound 29]	%	28
CNC(=O)C12CC1C(n1cnc3c(NCc4ccc(N)cc4)nc(Cl)nc31)C(O)C2O (centres unmarked) [Compound 31a]	%	22
CNC(=O)C12CC1C(n1cnc3c(NCc4cc(Cl)ccc4OC)nc(Cl)nc31)C(O)C2O (centres unmarked) [Compound 22]	%	37

**Query** For the compound shown here, CNC(=O)[C@@]12C[C@@H]1[C@H](n1cnc3c(NCc4cccc(Cl)c4)nc(Cl)nc31)[C@H](O)[C@@H]2O [Compound 18] , give the reported % Activation (hA2BAR) at 10 μM.
**Result** 38
